Values were extracted from paper PMC9482650.

Target: T1, PARD3B_1, Q8TEW8
T1 sequence (Q8TEW8 196-299, limits assumed, looked up): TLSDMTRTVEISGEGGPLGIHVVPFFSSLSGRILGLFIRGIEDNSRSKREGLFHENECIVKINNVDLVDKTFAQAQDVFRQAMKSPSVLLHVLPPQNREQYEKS
Experiment: holdup assay
Design: key: below the threshold = too weak to quantify, mostly under pKd 3.1 to 4
Settings: plain residues with an end cap or a label only (N-terminal biotin on a linker: ado-ado)
TEST_READOUT: pKd
Respond with the number and no other words.

- BINDER: "VCMGDHWFDV [PRKN, O60260]"
  RECORDED_RESULT: 4.78
- BINDER: "RGKNRRQSIF [CDK18, Q07002]"
  RECORDED_RESULT: 3.89

Enquiry: Requested read-out: pKd. Entry: QKNKDREYYV [NRXN3, Q9HDB5]
Return: 4.17

Enquiry: Look up pKd for this binder: DSEEELPTRL [GRK6, P43250]
Return: 4.51

Enquiry: pKd lookup needed for LLQEEWETVM [PTH1R, Q03431] , thanks.
Return: 4.43

Enquiry: Item PAALPESTHM [SLC9A3, P48764] has what recorded pKd?
Return: 3.6

Enquiry: Look at this binder and give its reported pKd. GTMFLRETSL [GUCY1A2, P33402]
Return: 3.88

Enquiry: I'd like to know its pKd. The binder in question is PDSYHRRDFW [U2AF2, P26368]
Return: 4.1

Enquiry: Would you mind telling me what pKd value was observed for NKSEPFLTWL [WWTR1, Q9GZV5] ?
Return: 4.57
